// data source = the NIST ThermoML archive (doi:10.1021/acs.jced.9b00134)

run_description: xn = mol fraction of the nth substance listed
condition_description: 303 K; 101.13 kPa; Liquid; Concentric cylinders viscometry; x1 = 0.5
measured_endpoint: viscosity (mPa·s)
The answer is to be given in mPa·s; state only the numeric part.

INSERT INTO assay_data (molecule, measured_endpoint, units_label, numeric_result) VALUES
  ('C[N+](C)(C)Cc1ccccc1.[Cl-] [trimethylbenzylammonium chloride] + OCCO', 'viscosity', 'mPa·s', 96.5),
  ('C[N+](C)(C)Cc1ccccc1.[Cl-] [trimethylbenzylammonium chloride] + OCCCCCCO', 'viscosity', 'mPa·s', 143.6);

Ask | Which measured viscosity value corresponds to C[N+](C)(C)Cc1ccccc1.[Cl-] [trimethylbenzylammonium chloride] + CCC(O)CO ?
Reply | 128.5

Ask | Lookup C[N+](C)(C)Cc1ccccc1.[Cl-] [trimethylbenzylammonium chloride] + OCC(O)CO
Reply | 159.6

----------
condition_description: 293.15 K; 101.13 kPa; Liquid; Vibrating tube method
measured_endpoint: mass density (kg/m3)
The answer is to be given in kg/m3; state only the numeric part.

INSERT INTO assay_data (compound, numeric_result) VALUES
  ('OCC(O)CO', 1238),
  ('OCCCCCCO', 947),
  ('OCCO', 1105);

We now examine a further compound.
Ask | Which measured mass density value corresponds to CCC(O)CO (centres undefined) ?
Reply | 1000

----------
run_description: xn = mol fraction of the nth substance listed
condition_description: 318 K; 101.13 kPa; Liquid; Alternating current cell with electrodes; x1 = 0.5
measured_endpoint: electrical conductivity (S/m)
The answer is to be given in S/m; state only the numeric part.

Please review the following examples before continuing.
INSERT INTO results (compound, numeric_result) VALUES
  ('C[N+](C)(C)Cc1ccccc1.[Cl-] [trimethylbenzylammonium chloride] + OCCO', 0.965),
  ('C[N+](C)(C)Cc1ccccc1.[Cl-] [trimethylbenzylammonium chloride] + OCC(O)CO', 0.123),
  ('C[N+](C)(C)Cc1ccccc1.[Cl-] [trimethylbenzylammonium chloride] + CCC(O)CO', 0.465);

We now examine a further compound.
Ask | Which measured electrical conductivity value corresponds to C[N+](C)(C)Cc1ccccc1.[Cl-] [trimethylbenzylammonium chloride] + OCCCCCCO ?
Reply | 0.195

----------
Below, each of the molecules is paired with its reported electrical conductivity value.
run_description: xn = mol fraction of the nth substance listed
condition_description: 323 K; 101.13 kPa; Liquid; Alternating current cell with electrodes; x1 = 0.5
The answer is to be given in S/m; state only the numeric part.

Please review the following examples before continuing.
INSERT INTO results (molecule, numeric_result) VALUES
  ('C[N+](C)(C)Cc1ccccc1.[Cl-] [trimethylbenzylammonium chloride] + CCC(O)CO', 0.532),
  ('C[N+](C)(C)Cc1ccccc1.[Cl-] [trimethylbenzylammonium chloride] + OCCCCCCO', 0.253),
  ('C[N+](C)(C)Cc1ccccc1.[Cl-] [trimethylbenzylammonium chloride] + OCC(O)CO', 0.178);

Ask | Which measured electrical conductivity value corresponds to C[N+](C)(C)Cc1ccccc1.[Cl-] [trimethylbenzylammonium chloride] + OCCO ?
Reply | 1.02

----------
run_description: xn = mol fraction of the nth substance listed
condition_description: 303 K; 101.13 kPa; Liquid; Alternating current cell with electrodes; x1 = 0.5
Below, each of the molecules is paired with its reported electrical conductivity value.
The answer is to be given in S/m; state only the numeric part.

INSERT INTO assay_data (molecule, measured_endpoint, units_label, numeric_result) VALUES
  ('C[N+](C)(C)Cc1ccccc1.[Cl-] [trimethylbenzylammonium chloride] + CCC(O)CO', 'electrical conductivity', 'S/m', 0.312),
  ('C[N+](C)(C)Cc1ccccc1.[Cl-] [trimethylbenzylammonium chloride] + OCCO', 'electrical conductivity', 'S/m', 0.706),
  ('C[N+](C)(C)Cc1ccccc1.[Cl-] [trimethylbenzylammonium chloride] + OCC(O)CO', 'electrical conductivity', 'S/m', 0.115);

We now examine a further molecule.
Ask | Which measured electrical conductivity value corresponds to C[N+](C)(C)Cc1ccccc1.[Cl-] [trimethylbenzylammonium chloride] + OCCCCCCO ?
Reply | 0.145

----------
run_description: refractive index (Na D-line) (dimensionless); xn = mol fraction of the nth substance listed
condition_description: 313 K; 101.13 kPa; Liquid; Standard Abbe refractometry; x1 = 0.5
± gives the expanded uncertainty stated by the source.
measured_endpoint: refractive index

Please review the following examples before continuing.
INSERT INTO measurements (compound, result) VALUES
  ('C[N+](C)(C)Cc1ccccc1.[Cl-] [trimethylbenzylammonium chloride] + OCCCCCCO', '1.5016 ± 0.0007'),
  ('C[N+](C)(C)Cc1ccccc1.[Cl-] [trimethylbenzylammonium chloride] + OCC(O)CO', '1.5532 ± 0.0007'),
  ('C[N+](C)(C)Cc1ccccc1.[Cl-] [trimethylbenzylammonium chloride] + CCC(O)CO', '1.4851 ± 0.0007');

We now examine a further compound.
Ask | Which measured refractive index value corresponds to C[N+](C)(C)Cc1ccccc1.[Cl-] [trimethylbenzylammonium chloride] + OCCO ?
Reply | 1.4652 ± 0.0008

----------
run_description: xn = mol fraction of the nth substance listed
condition_description: 298 K; 101.13 kPa; Liquid; Vibrating tube method; x1 = 0.5
measured_endpoint: mass density (kg/m3)
The answer is to be given in kg/m3; state only the numeric part.

Please review the following examples before continuing.
INSERT INTO results (compound, numeric_result) VALUES
  ('C[N+](C)(C)Cc1ccccc1.[Cl-] [trimethylbenzylammonium chloride] + CCC(O)CO', 1093),
  ('C[N+](C)(C)Cc1ccccc1.[Cl-] [trimethylbenzylammonium chloride] + OCCCCCCO', 1132.6),
  ('C[N+](C)(C)Cc1ccccc1.[Cl-] [trimethylbenzylammonium chloride] + OCC(O)CO', 1167.2);

We now examine a further compound.
Ask | Which measured mass density value corresponds to C[N+](C)(C)Cc1ccccc1.[Cl-] [trimethylbenzylammonium chloride] + OCCO ?
Reply | 1118

----------
run_description: refractive index (Na D-line) (dimensionless); xn = mol fraction of the nth substance listed
condition_description: 318 K; 101.13 kPa; Liquid; Standard Abbe refractometry; x1 = 0.5
measured_endpoint: refractive index
Kindly provide the number alone.

Please review the following examples before continuing.
INSERT INTO measurements (compound, numeric_result) VALUES
  ('C[N+](C)(C)Cc1ccccc1.[Cl-] [trimethylbenzylammonium chloride] + CCC(O)CO', 1.4823),
  ('C[N+](C)(C)Cc1ccccc1.[Cl-] [trimethylbenzylammonium chloride] + OCCO', 1.4611),
  ('C[N+](C)(C)Cc1ccccc1.[Cl-] [trimethylbenzylammonium chloride] + OCC(O)CO', 1.5503);

Ask | Which measured refractive index value corresponds to C[N+](C)(C)Cc1ccccc1.[Cl-] [trimethylbenzylammonium chloride] + OCCCCCCO ?
Reply | 1.4987

----------
run_description: refractive index (Na D-line) (dimensionless); xn = mol fraction of the nth substance listed
condition_description: 303 K; 101.13 kPa; Liquid; Standard Abbe refractometry; x1 = 0.5
measured_endpoint: refractive index
Kindly provide the number alone.

Please review the following examples before continuing.
INSERT INTO assay_data (compound, numeric_result) VALUES
  ('C[N+](C)(C)Cc1ccccc1.[Cl-] [trimethylbenzylammonium chloride] + OCC(O)CO', 1.5587),
  ('C[N+](C)(C)Cc1ccccc1.[Cl-] [trimethylbenzylammonium chloride] + OCCO', 1.4731),
  ('C[N+](C)(C)Cc1ccccc1.[Cl-] [trimethylbenzylammonium chloride] + OCCCCCCO', 1.5083);

We now examine a further compound.
Ask | Which measured refractive index value corresponds to C[N+](C)(C)Cc1ccccc1.[Cl-] [trimethylbenzylammonium chloride] + CCC(O)CO ?
Reply | 1.4921

----------
run_description: xn = mol fraction of the nth substance listed
condition_description: 303 K; 101.13 kPa; Liquid; Vibrating tube method; x1 = 0.5
Numbers after ± are expanded uncertainties.
measured_endpoint: mass density
Answer format: value, then unit.

Please review the following examples before continuing.
INSERT INTO results (compound, result) VALUES
  ('C[N+](C)(C)Cc1ccccc1.[Cl-] [trimethylbenzylammonium chloride] + OCCCCCCO', '1126.2 ± 20 kg/m3'),
  ('C[N+](C)(C)Cc1ccccc1.[Cl-] [trimethylbenzylammonium chloride] + OCCO', '1111.2 ± 20 kg/m3'),
  ('C[N+](C)(C)Cc1ccccc1.[Cl-] [trimethylbenzylammonium chloride] + CCC(O)CO', '1083 ± 20 kg/m3');

Ask | Which measured mass density value corresponds to C[N+](C)(C)Cc1ccccc1.[Cl-] [trimethylbenzylammonium chloride] + OCC(O)CO ?
Reply | 1164.3 ± 20 kg/m3
